- assay_name: log P by HPLC (OECD Guideline 117), method [b] neutral range
- Assay type: physicochemical
- stated_conditions: HPLC, method [b] neutral range
measurement_kind: logP[b]

// below: answered compounds
compound	measurement_kind	recorded_number
CCCc1nn(-c2cc([S+]([O-])CC(F)(F)F)c(C)cc2F)c(=O)n1C1CC1 (racemic)	logP[b]	2.49
COc1nn(-c2cc([S+]([O-])CC(F)(F)F)c(C)cc2F)c(=O)n1C (centres unmarked)	logP[b]	1.77
CCn1c(OCC(F)(F)F)nn(-c2cc([S+]([O-])CC(F)(F)F)c(C)cc2F)c1=O (centres unmarked)	logP[b]	2.78
CCC(C)Oc1nn(-c2ccc(C)c(SCC(F)(F)F)c2)c(=O)n1C1CC1 (centres unmarked)	logP[b]	4.96
C=CCSc1nn(-c2cc([S+]([O-])CC(F)(F)F)c(C)cc2F)c(=O)n1CC=C (centres unmarked)	logP[b]	3.05
Cc1cc(F)c(-n2nc(SCC(F)F)n(C3CC3)c2=O)cc1SCC(F)(F)F	logP[b]	3.75

(A) CCOc1nn(-c2ccc(C)c(SCC(F)(F)F)c2)c(=O)n1C
(B) Cc1cc(F)c(-n2ncn(C3CC3)c2=O)cc1[S+]([O-])CC(F)(F)F (racemic)
Q) // compare measured logP[b], left A , right B , return larger // return label of chosen record
A) A
(A: 3.74, B: 1.69)

###

- assay_name: log P by HPLC (OECD Guideline 117), method [a] acidic range
- Assay type: physicochemical
- stated_conditions: reversed-phase C18 HPLC column, pH 2.7, HPLC method [a], acidic range; read-out: logP[a]
measurement_kind: chromatographic logP

// below: answered molecules
molecule	chromatographic logP
Cc1cc(F)c(-n2nnn(C)c2=S)cc1SCC(F)(F)F	3.51
Cc1cc(F)c(-n2nc(C(F)(F)F)n(C)c2=O)cc1SCC(F)(F)F	3.58

(1) Cc1cc(F)c(-n2nnn(-c3ccc(Cl)cc3)c2=O)cc1SCC(F)(F)F
(2) CCn1ccn(-c2cc([S+]([O-])CC(F)(F)F)c(C)cc2F)c1=O (stereo not shown)
Q) // compare measured chromatographic logP, left 1 , right 2 , return larger // return label of chosen record
A) 1

###

- assay_name: log P by HPLC (OECD Guideline 117), method [b] neutral range
- Type: physicochemical
- stated_conditions: HPLC, method [b] neutral range
- Protocol: The log P values were determined analogously to OECD Guideline 117 (EC Directive 92/69/EEC) by HPLC (high-performance liquid chromatography) using reversed-phase columns (C 18), by the following methods: [b] The LC-MS determination in the neutral range is effected at pH 7.8 with 0.001 molar aqueous ammonium hydrogencarbonate solution and acetonitrile as eluents; linear gradient from 10% acetonitrile to 95% acetonitrile.
measurement_kind: logP[b]

// below: answered compounds
compound	logP[b]
Cc1cc(F)c(-n2nc(OCc3ccccc3)n(C3CC3)c2=O)cc1SCC(F)(F)F	4.25
CC[S+]([O-])c1nn(-c2cc([S+]([O-])CC(F)(F)F)c(C)cc2F)c(=O)n1C1CC1 (centres unmarked)	1.80
Cc1ccc(-n2nc(OCC3CC3)n(C3CC3)c2=O)cc1SCC(F)(F)F	4.56

(P) CCn1c(C(F)(F)F)nn(-c2cc([S+]([O-])CC(F)(F)F)c(C)cc2F)c1=O (centres unmarked)
(Q) CCCOc1nn(-c2cc(SCC(F)(F)F)c(C)cc2F)c(=O)n1CC
Q) Looking at P and Q , which one comes out lower in logP[b] terms? // return label of chosen record
A) P
(P: 2.77, Q: 3.96)

###

- assay_name: log P by HPLC (OECD Guideline 117), method [a] acidic range
- Assay type: physicochemical
- stated_conditions: HPLC, method [a] acidic range
measurement_kind: logP[a]

// below: answered molecules
molecule	logP[a]
CCC(C)Oc1nn(-c2cc(SCC(F)(F)F)c(C)cc2F)c(=O)n1C1CC1 (centres unmarked) [Example 140]	4.36
Cc1cc(F)c(-n2nc(C3CCCCC3)n(C3CC3)c2=O)cc1[S+]([O-])CC(F)(F)F (centres unmarked) [Example 361]	3.34
Cc1cc(F)c(-n2nc(C(F)(F)F)n(N(C)C)c2=O)cc1SCC(F)(F)F [Example 214]	4.24
Cc1cc(F)c(-n2nc(NC(C)C)n(N)c2=O)cc1SCC(F)(F)F [Example 224]	2.74
COc1nn(-c2cc([S+]([O-])CC(F)(F)F)c(C)cc2Cl)c(=O)n1C1CC1 (centres unmarked) [Example 117]	2.28

(A) COc1cc(F)c(-n2nc(OCC(F)(F)F)n(C3CC3)c2=O)cc1[S+]([O-])CC(F)(F)F (racemic) [Example 385]
(B) Cc1cc(F)c(-n2nc(SC(F)(F)F)n(C3CC3)c2=O)cc1SCC(F)(F)F [Example 263]
Q) // compare measured logP[a], left A , right B , return larger // return label of chosen record
A) B

###

- assay_name: log P by HPLC (OECD Guideline 117), method [a] acidic range
- Assay type: physicochemical
- stated_conditions: HPLC, method [a] acidic range
measurement_kind: logP[a]

// below: answered molecules
molecule	measurement_kind	recorded_number
Cc1cc(F)c(-n2nc(-c3ccc(Cl)cc3)oc2=O)cc1SCC(F)(F)F	logP[a]	4.85
Cc1cc(F)c(-n2nc(C(F)(F)F)n(C(C)C)c2=O)cc1[S+]([O-])CC(F)(F)F (centres unmarked)	logP[a]	3.22
Cc1cc(C)c(-n2nc(C(F)(F)F)n(C3CC3)c2=O)cc1SCC(F)(F)F	logP[a]	4.13

(I) CCCCn1c(C(F)(F)F)nn(-c2cc([S+]([O-])CC(F)(F)F)c(C)cc2F)c1=O (centres unmarked)
(II) COc1nn(-c2cc([S+]([O-])CC(F)(F)F)c(Cl)cc2F)c(=O)n1C1CC1 (centres unmarked)
Q) // compare measured logP[a], left I , right II , return larger // return label of chosen record
A) I

###

- assay_name: log P by HPLC (OECD Guideline 117), method [a] acidic range
- Format: physicochemical
- stated_conditions: HPLC, method [a] acidic range
measurement_kind: logP[a]

molecule	measurement_kind	recorded_number
Cc1cc(C)c([S+]([O-])CC(F)(F)F)cc1-n1nc(OCC(F)(F)F)n(C2CC2)c1=O (racemic)	logP[a]	2.88
CCOC1=CC(=O)N(c2cc(SCC(F)(F)F)c(C)cc2F)C1	logP[a]	3.29
Cc1cc(C)c(-n2nc(C(F)(F)F)n(C(C)(C)C)c2=O)cc1SCC(F)(F)F	logP[a]	4.95
Cc1ccc(-n2nc(OCC3CC3)n(C3CC3)c2=O)cc1SCC(F)(F)F	logP[a]	4.60
Cc1cc(F)c(-n2nc(-c3cccc(F)c3)n(C3CC3)c2=O)cc1SCC(F)(F)F	logP[a]	3.98
COc1nn(-c2cc(SCC(F)(F)F)c(C)cc2F)c(=O)n1CC1CC1	logP[a]	3.64

(a) Cc1cc(F)c(-n2nc(OCC(C)C)n(C)c2=O)cc1SCC(F)(F)F
(b) CCn1c(Cl)nn(-c2cc([S+]([O-])CC(F)(F)F)c(C)cc2F)c1=O (centres unmarked)
Q) Looking at a and b , which one comes out lower in logP[a] terms? // return label of chosen record
A) b

###

- assay_name: log P by HPLC (OECD Guideline 117), method [a] acidic range
- Type: physicochemical
- stated_conditions: HPLC, method [a] acidic range
- Protocol: The log P values were determined analogously to OECD Guideline 117 (EC Directive 92/69/EEC) by HPLC (high-performance liquid chromatography) using reversed-phase columns (C 18), by the following methods: [a] The LC-MS determination in the acidic range is effected at pH 2.7 with 0.1% aqueous formic acid and acetonitrile (contains 0.1% formic acid) as eluents; linear gradient from 10% acetonitrile to 95% acetonitrile.
measurement_kind: logP[a]

// below: answered compounds
compound	logP[a]
C=CCn1c(SC)nn(-c2cc([S+]([O-])CC(F)(F)F)c(C)cc2F)c1=O (centres unmarked) [Example 272]	2.54
Cc1cc(F)c(-n2nc(OCC(C)(C)C)n(C3CC3)c2=O)cc1SCC(F)(F)F [Example 386]	4.77

(I) Cc1cc(F)c(-n2nc(C(F)(F)F)n(C(C)(C)C)c2=O)cc1[S+]([O-])CC(F)(F)F (racemic) [Example 68]
(II) Cc1cc(F)c(-n2nc([S+]([O-])CC3CC3)n(C)c2=O)cc1[S+]([O-])CC(F)(F)F (centres unmarked) [Example 248]
Q) Looking at I and II , which one comes out lower in logP[a] terms? // return label of chosen record
A) II

###

- assay_name: log P by HPLC (OECD Guideline 117), method [a] acidic range
- Format: physicochemical
- stated_conditions: HPLC, method [a] acidic range
measurement_kind: logP[a]

compound	measurement_kind	recorded_number
COCc1nn(-c2cc([S+]([O-])CC(F)(F)F)c(C)cc2F)c(=O)n1C1CC1 (centres unmarked)	logP[a]	1.99
Cc1cc(F)c(-n2nc(C(C)C)n(N)c2=O)cc1[S+]([O-])CC(F)(F)F (centres unmarked)	logP[a]	1.96
Cc1cc(F)c(-n2nc(C3CC3)n(N)c2=O)cc1SCC(F)(F)F	logP[a]	2.67
Cc1cc(F)c(N2C(=O)C(Cl)=C(Cl)C2=O)cc1SCC(F)(F)F	logP[a]	3.99
CCN(CC)c1nn(-c2cc([S+]([O-])CC(F)(F)F)c(C)cc2F)c(=O)n1N (centres unmarked)	logP[a]	2.23

(1) Cc1cc(F)c(-n2nc(OC3CCOC3)n(C)c2=O)cc1[S+]([O-])CC(F)(F)F (centres unmarked)
(2) CCC(C)Oc1nn(-c2cc([S+]([O-])CC(F)(F)F)c(C)cc2F)c(=O)n1C1CC1 (centres unmarked)
(3) Cc1ccc(-n2nc(OC(C)(C)C)n(C)c2=O)cc1SCC(F)(F)F
Q) Order the items by recorded logP[a]; the first position goes to the largest value. Answer format: list of labels, ordered as asked.
A) 3, 2, 1
